Reported values of Ki for individual entries
Biological target: human growth hormone secretagogue receptor (hGHS-R1a) (Homo sapiens, UniProt Q92847)
Sequence (Q92847 whole entry): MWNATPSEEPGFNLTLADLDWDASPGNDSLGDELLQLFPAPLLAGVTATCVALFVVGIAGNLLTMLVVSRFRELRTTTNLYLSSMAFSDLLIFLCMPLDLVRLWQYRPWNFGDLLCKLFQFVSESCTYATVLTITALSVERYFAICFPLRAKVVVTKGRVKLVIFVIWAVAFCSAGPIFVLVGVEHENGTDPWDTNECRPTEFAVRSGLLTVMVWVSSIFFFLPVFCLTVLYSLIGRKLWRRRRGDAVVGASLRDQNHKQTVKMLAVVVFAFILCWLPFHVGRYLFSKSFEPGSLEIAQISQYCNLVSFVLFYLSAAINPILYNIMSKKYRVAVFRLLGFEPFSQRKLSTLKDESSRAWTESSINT
Experiment: Competitive radioligand binding assay (ghrelin receptor), standard method A
Conditions: binding activity at the human ghrelin receptor, standard method A
Source text: A competitive binding assay at the human growth hormone secretagogue receptor (hGHS-R1a) can be carried out analogously to assays described in the literature. (Bednarek, M. A.; et al. J. Med. Chem. 2000, 43, 4370-4376; Palucki, B. L.; et al. Bioorg. Med. Chem. Lett. […], 11, 1955-1957.) See also U.S. patent application Ser. Nos. 11/149,512 and 11/149,731. Binding activity at the gherlin receptor for representative compounds of the present invention is shown in the Examples below.
experimental-endpoint: Ki

# compound, target-or-test-system, readout-value
records = [
    ("CC(C)C[C@H]1NC(=O)[C@@H](C)N(C)C(=O)[C@H](C2CC2)NCCOc2c(F)cccc2CCCNC1=O [Compound 813]", "human growth hormone secretagogue receptor (hGHS-R1a) (Homo sapiens, UniProt Q92847)", "≤ 10 nM"),
    ("C[C@@H]1C(=O)N[C@H](Cc2ccc(O)cc2)C(=O)NCCCc2cccc3c2O[C@@H](CC3)CN[C@@H](C2CC2)C(=O)N1C [Compound 1024]", "human growth hormone secretagogue receptor (hGHS-R1a) (Homo sapiens, UniProt Q92847)", "≤ 100 nM"),
    ("C[C@@H]1CN[C@@H](C2CC2)C(=O)N(C)[C@H](C)C(=O)N[C@H](Cc2ccc(Cl)cc2)C(=O)NCCCc2cc(F)c(F)cc2O1 [Compound 951]", "human growth hormone secretagogue receptor (hGHS-R1a) (Homo sapiens, UniProt Q92847)", "≤ 500 nM"),
    ("CC[C@H](C)[C@@H]1NC[C@@H](C)Oc2ccccc2CCCNC(=O)[C@@H](Cc2ccc(Cl)cc2)NC(=O)[C@@H](C)N(C)C1=O [Compound 878]", "human growth hormone secretagogue receptor (hGHS-R1a) (Homo sapiens, UniProt Q92847)", "≤ 100 nM"),
    ("C[C@@H]1CN[C@@H](C2CC2)C(=O)N(C)[C@H](C)C(=O)N[C@H](Cc2cccnc2)C(=O)NCCCc2ccccc2O1 [Compound 975]", "human growth hormone secretagogue receptor (hGHS-R1a) (Homo sapiens, UniProt Q92847)", "≤ 100 nM"),
    ("C[C@@H]1CN[C@@H](C2CC2)C(=O)N(C)[C@H](C)C(=O)N[C@H](CC(=O)O)C(=O)NCCCc2ccccc2O1 [Compound 1036]", "human growth hormone secretagogue receptor (hGHS-R1a) (Homo sapiens, UniProt Q92847)", "> 500 nM"),
    ("C[C@@H]1C(=O)N[C@H](Cc2ccc(F)cc2)C(=O)NCCCc2ccc(F)c(F)c2OCCN[C@@H](C2CC2)C(=O)N1C [Compound 1100]", "human growth hormone secretagogue receptor (hGHS-R1a) (Homo sapiens, UniProt Q92847)", "≤ 10 nM"),
    ("C[C@@H]1C(=O)N[C@H](Cc2ccc(O)cc2)C(=O)NCCCc2ncccc2OCCN[C@@H](C2CC2)C(=O)N1C [Compound 988]", "human growth hormone secretagogue receptor (hGHS-R1a) (Homo sapiens, UniProt Q92847)", "≤ 100 nM"),
    ("CC[C@H](C)[C@@H]1NC[C@@H](C)Oc2c(F)cccc2CCCNC(=O)[C@@H](Cc2ccc(O)cc2)NC(=O)[C@@H](C)N(C)C1=O [Compound 994]", "human growth hormone secretagogue receptor (hGHS-R1a) (Homo sapiens, UniProt Q92847)", "≤ 100 nM"),
    ("CC1C(=O)NC(Cc2ccc(O)cc2)C(=O)NCCCc2c(F)cccc2OCCNC(C2CC2)C(=O)N1C (stereo not shown) [Compound 1110]", "human growth hormone secretagogue receptor (hGHS-R1a) (Homo sapiens, UniProt Q92847)", "≤ 100 nM"),
    ("CC1C(=O)NC(Cc2ccc(O)cc2)C(=O)NCCCC2CCCCC2OCCNC(C2CC2)C(=O)N1C (stereo not shown) [Compound 1118]", "human growth hormone secretagogue receptor (hGHS-R1a) (Homo sapiens, UniProt Q92847)", "≤ 10 nM"),
    ("C[C@@H]1C(=O)N[C@H](Cc2ccc(F)cc2)C(=O)NCCCc2cccc3c2OC(CC3)CN[C@@H](C2CC2)C(=O)N1C (stereo partly shown) [Compound 946]", "human growth hormone secretagogue receptor (hGHS-R1a) (Homo sapiens, UniProt Q92847)", "≤ 10 nM"),
    ("CC[C@H](C)[C@@H]1NC[C@@H](C)Oc2cccnc2CCCNC(=O)[C@@H](Cc2ccc(O)cc2)NC(=O)[C@@H](C)N(C)C1=O [Compound 1026]", "human growth hormone secretagogue receptor (hGHS-R1a) (Homo sapiens, UniProt Q92847)", "≤ 100 nM"),
    ("C[C@@H]1CN[C@@H](C2CC2)C(=O)N(C)[C@H](C)C(=O)N[C@H](CC2CCCCC2)C(=O)NCCCc2ccccc2O1 [Compound 1045]", "human growth hormone secretagogue receptor (hGHS-R1a) (Homo sapiens, UniProt Q92847)", "≤ 100 nM"),
    ("C[C@@H]1CN[C@@H](C2CC2)C(=O)N(C)[C@H](C)C(=O)N[C@H](Cc2ccccc2)C(=O)NCCCc2ccccc2O1 [Compound 851]", "human growth hormone secretagogue receptor (hGHS-R1a) (Homo sapiens, UniProt Q92847)", "≤ 100 nM"),
    ("C[C@@H]1CN[C@@H](C2CC2)C(=O)N(C)[C@H](C)C(=O)N[C@H](Cc2cc(F)c(F)c(F)c2)C(=O)NCCCc2ccccc2O1 [Compound 1041]", "human growth hormone secretagogue receptor (hGHS-R1a) (Homo sapiens, UniProt Q92847)", "≤ 100 nM"),
    ("CC(C)CC1NC(=O)C(C)N(C)C(=O)C(C2CC2)NC(C)C(C)Oc2ccccc2CCCNC1=O (stereo not shown) [Compound 819]", "human growth hormone secretagogue receptor (hGHS-R1a) (Homo sapiens, UniProt Q92847)", "≤ 10 nM"),
    ("CC1C(=O)NC(Cc2ccc(O)cc2)C(=O)NCCCc2ccc(F)cc2OCCNC(C2CCCCC2)C(=O)N1C (stereo not shown) [Compound 1113]", "human growth hormone secretagogue receptor (hGHS-R1a) (Homo sapiens, UniProt Q92847)", "≤ 1 nM"),
    ("C[C@@H]1CN[C@@H](C2CC2)C(=O)N(C)[C@H](C)C(=O)N[C@H]([C@H](C)c2ccc(O)cc2)C(=O)NCCCc2ncccc2O1 [Compound 1081]", "human growth hormone secretagogue receptor (hGHS-R1a) (Homo sapiens, UniProt Q92847)", "> 500 nM"),
    ("C[C@@H]1CN[C@@H](C2CCCCC2)C(=O)N(C)[C@H](C)C(=O)N[C@H](Cc2ccc(O)cc2)C(=O)NCCCc2ncccc2O1 [Compound 1062]", "human growth hormone secretagogue receptor (hGHS-R1a) (Homo sapiens, UniProt Q92847)", "≤ 10 nM"),
    ("CC1CNC(C2CCCCC2)C(=O)N(C)C(C)C(=O)NC(Cc2ccc(O)cc2)C(=O)NCCCc2ccccc2O1 (stereo not shown) [Compound 1108]", "human growth hormone secretagogue receptor (hGHS-R1a) (Homo sapiens, UniProt Q92847)", "≤ 1 nM"),
    ("CC[C@H](C)[C@@H]1NC[C@@H](C)Oc2ccccc2CCCNC(=O)[C@@H](Cc2ccc(F)cc2)NC(=O)[C@@H](C)N(C)C1=O [Compound 855]", "human growth hormone secretagogue receptor (hGHS-R1a) (Homo sapiens, UniProt Q92847)", "≤ 100 nM"),
    ("C[C@@H]1CN[C@@H](C2CC2)C(=O)N(C)[C@H](C)C(=O)N[C@H](Cc2ccc(F)cc2)C(=O)NCCCc2cccc(F)c2O1 [Compound 935]", "human growth hormone secretagogue receptor (hGHS-R1a) (Homo sapiens, UniProt Q92847)", "≤ 100 nM"),
    ("CCC[C@@H]1NC[C@@H](C)Oc2ccccc2CCCNC(=O)[C@@H](Cc2ccccc2)NC(=O)[C@@H](C)N(C)C1=O [Compound 858]", "human growth hormone secretagogue receptor (hGHS-R1a) (Homo sapiens, UniProt Q92847)", "≤ 500 nM"),
    ("C[C@@H]1CN[C@@H](C2CC2)C(=O)N(C)[C@H](C)C(=O)N[C@H](Cc2ccncc2)C(=O)NCCCc2ccccc2O1 [Compound 977]", "human growth hormone secretagogue receptor (hGHS-R1a) (Homo sapiens, UniProt Q92847)", "≤ 500 nM"),
]
